# TESTED_SYSTEM: Neuropeptides B/W receptor type 1 (Homo sapiens) (UniProt P48145)
# Sequence (P48145 whole entry, looked up): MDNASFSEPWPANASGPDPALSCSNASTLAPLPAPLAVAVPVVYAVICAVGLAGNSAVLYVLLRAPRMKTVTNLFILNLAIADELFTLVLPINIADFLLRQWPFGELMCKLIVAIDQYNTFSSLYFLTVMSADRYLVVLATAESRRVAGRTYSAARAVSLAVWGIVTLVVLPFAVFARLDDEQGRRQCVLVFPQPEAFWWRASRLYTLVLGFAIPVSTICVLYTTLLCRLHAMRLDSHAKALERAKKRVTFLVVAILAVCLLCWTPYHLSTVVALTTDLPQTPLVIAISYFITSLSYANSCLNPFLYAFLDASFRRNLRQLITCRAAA
# PROTOCOL_DETAILS: GPR7 receptor antagonists, primary screen, cell-based, fluorescence, single concentration (AID 1861);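 further: cells stimulated with the agonist NPW; 0% = agonist with vehicle and 100% = vehicle without agonist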
# CONDITION_LABEL: GPR7-expressing cells, fluorescence antagonist assay; at 4.4 µM; stronger effect = higher value
Screen size: about 290,000 compounds; about 3,100 (1.1%) were called active. For the sample, actives were picked, then their nearest neighbours and some compounds at random.
OBSERVED_PROPERTY: inhibition

Prompt line: Recall the recorded inhibition for `Cc1cccc(NC(=O)CSc2nnc(-c3ccco3)o2)c1` with Neuropeptides B/W receptor type 1 (Homo sapiens) (UniProt P48145) and state it.
Response line: 2.82% (inactive)

Prompt line: Recall the recorded inhibition for `Cc1cc(N/N=C\c2ccc(Br)cc2)nc(-n2nc(C)cc2C)n1` with Neuropeptides B/W receptor type 1 (Homo sapiens) (UniProt P48145) and state it.
Response line: -2.3% (inactive)

Prompt line: Recall the recorded inhibition for `O=C(CSc1nnc(-c2ccco2)o1)NCC(=O)c1ccccc1` with Neuropeptides B/W receptor type 1 (Homo sapiens) (UniProt P48145) and state it.
Response line: 37.5% (active)

Turning now to a further record.
Prompt line: Recall the recorded inhibition for `CC(=O)N1CCN(c2ccccc2NC(=S)NC(=O)c2cc3ccccc3o2)CC1` with Neuropeptides B/W receptor type 1 (Homo sapiens) (UniProt P48145) and state it.
Response line: -12.1% (inactive)

====

# TESTED_SYSTEM: Neuropeptides B/W receptor type 1 (Homo sapiens)
# PROTOCOL_DETAILS: GPR7 receptor antagonists, primary screen, cell-based, fluorescence, single concentration (AID 1861);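 further: cells stimulated with the agonist NPW; 0% = agonist with vehicle and 100% = vehicle without agonist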
# CONDITION_LABEL: GPR7-expressing cells, fluorescence antagonist assay; at 4.4 µM
In all, about 290,000 compounds went through this assay and about 3,100 (1.1%) were called active. Rule as the data show it: active = inhibition above about 16% (passing the limit was not always enough); inactive = the rest. The entries come from a sample that favours actives as a whole.
Classes to choose from: active, inactive

Prompt line: Just curious, what result did `Cc1ccc(NC(=O)C/C(N)=N/O)cc1Cl` get here?
Response line: inactive

Prompt line: Just curious, what result did `CN(Cc1c(F)cccc1Cl)S(=O)(=O)c1cccs1` get here?
Response line: inactive

Prompt line: Just curious, what result did `CCC1=Nc2cc(C(=O)NCCN3CCCC3)ccc2Sc2ccc(C)cc21` get here?
Response line: inactive

Prompt line: Just curious, what result did CCC(C(=O)Nc1ccc(C(C)C)cc1)c1ccccc1 (stereo not given) get here?
Response line: active

Prompt line: Just curious, what result did Cc1ccc(OCC(=O)NC(C)c2ccccc2)c([N+](=O)[O-])n1 (stereo not given) get here?
Response line: inactive

Prompt line: Just curious, what result did COC(=O)C(C)Oc1ccc2c(c1)O/C(=C\c1cccc(Br)c1)C2=O (stereo not given) get here?
Response line: inactive

Prompt line: Just curious, what result did `O=C(CC(O)(C(F)(F)F)C(F)(F)F)Nc1ccc(Cl)c(Cl)c1` get here?
Response line: active

Prompt line: Just curious, what result did `Fc1ccc2[nH]c3c(N4CCSCC4)ncnc3c2c1` get here?
Response line: inactive

Prompt line: Just curious, what result did COc1ccccc1C(=O)N1C(CC(=O)Nc2ccccc2C)C(=O)NC2CCCCC21 (stereo not given) get here?
Response line: inactive

Prompt line: Just curious, what result did `COc1ccc(NC(=O)CCCC2CCCCC2)c(OC)c1` get here?
Response line: inactive

Prompt line: Just curious, what result did Cc1nn(Cc2ccccc2)c(Cl)c1C(=O)OC1CCOC1=O (stereo not given) get here?
Response line: inactive

Prompt line: Just curious, what result did COc1cccc(CNS(=O)(=O)c2ccc3c(c2)CC(C)N3C(=O)C2CCC2)c1 (stereo not given) get here?
Response line: inactive

Prompt line: Just curious, what result did `O=C(Cc1ccc(Cl)cc1)NC(=S)Nc1ccccc1O` get here?
Response line: active

Prompt line: Just curious, what result did COc1ccc(C2CC(c3ccccc3)Nc3ncnn32)cc1 (stereo not given) get here?
Response line: inactive

Prompt line: Just curious, what result did `Brc1ccccc1CN1CCC(Cc2ccccc2)CC1` get here?
Response line: inactive

====

# TESTED_SYSTEM: Neuropeptides B/W receptor type 1 (Homo sapiens) (UniProt P48145)
# PROTOCOL_DETAILS: GPR7 receptor antagonists, primary screen, cell-based, fluorescence, single concentration (AID 1861);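 further: cells stimulated with the agonist NPW; 0% = agonist with vehicle and 100% = vehicle without agonist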
# CONDITION_LABEL: GPR7-expressing cells, fluorescence antagonist assay; at 4.4 µM
The campaign covered roughly 290,000 compounds. About 3,100 (1.1%) were called active. Rule as the data show it: active = inhibition above about 16% (passing the limit was not always enough); inactive = the rest. For the sample, actives were picked, then their nearest neighbours and some compounds at random.
Classes to choose from: active, inactive

Example entries begin here.
Prompt line: Just curious, what result did `O=C(/C=C/Sc1ncn[nH]1)c1ccc(Cl)cc1` get here?
Response line: inactive

Prompt line: Just curious, what result did CC1CN(C(=O)c2cc(COc3c(F)cccc3F)on2)CCN1C (stereo unspecified) get here?
Response line: inactive

Prompt line: Just curious, what result did `Cc1ccccc1CN1C[C@@H]2C[C@@H](c3cn(C)nc3-c3ccccc3)N3CCC[C@@]23C1=O` get here?
Response line: active

More entries:
Prompt line: Just curious, what result did `Cc1ccc(O)c(NC(=O)COc2cc(C)ccc2C)c1` get here?
Response line: inactive

Prompt line: Just curious, what result did `O=C(NCCc1c[nH]c2ccc(Cl)cc12)c1ccc([N+](=O)[O-])cc1` get here?
Response line: inactive

Prompt line: Just curious, what result did `Nc1nnn(CC(=O)N/N=C/c2ccc(O)cc2)n1` get here?
Response line: inactive

====

# TESTED_SYSTEM: Neuropeptides B/W receptor type 1 (Homo sapiens)
# PROTOCOL_DETAILS: GPR7 receptor antagonists, primary screen, cell-based, fluorescence, single concentration (AID 1861);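 further: cells stimulated with the agonist NPW; 0% = agonist with vehicle and 100% = vehicle without agonist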
# CONDITION_LABEL: GPR7-expressing cells, fluorescence antagonist assay; at 4.4 µM; stronger effect = higher value
The whole screen tested about 290,000 compounds, of which about 3,100 (1.1%) were called active. The sample as a whole holds a higher share of actives than the screen did.
OBSERVED_PROPERTY: inhibition (%)
The reply should be a number in %, with the unit left off.

Prompt line: Requested field: inhibition. Item: `CCOc1ccc(N/C(N)=N/c2nc(C)c(C)c(=O)[nH]2)cc1`
Response line: 6

Prompt line: Requested field: inhibition. Item: `CCCCNC(=O)CSc1nc2ccc(NC(=O)CSc3nnc(COc4ccccc4C)n3C)cc2s1`
Response line: 8.43

Prompt line: Requested field: inhibition. Item: `COc1ccccc1N(CC(=O)N/N=C(\C)c1ccccc1O)S(=O)(=O)c1ccc(C)cc1`
Response line: -9.35

Prompt line: Requested field: inhibition. Item: CS(=O)(=O)Nc1cccc(C2=NN(S(=O)(=O)c3ccccc3)C(c3cccs3)C2)c1 (stereo not given)
Response line: 30

Turning now to a further record.
Prompt line: Requested field: inhibition. Item: CN(C(=O)c1cccc(OC2CCN(S(=O)(=O)N(C)C)CC2)c1)C1CCOC1 (stereo not given)
Response line: -0.89
